System: DERL-7 (IL-2 2.5 ng/mL);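 also: normalised to DMSO-only wells as negative and benzethonium chloride as positive control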
protocol-details: percent inhibition of viability; higher = more inhibition
assay-context: 72 h; 1000 nM
Collected percent inhibition of viability values appear next to each entry.
measurement-name: percent inhibition of viability

{"molecule": "COc1ccc(C[C@H](NC(=O)[C@H](C)NC(=O)CN2CCOCC2)C(=O)N[C@@H](Cc2ccccc2)C(=O)C2(C)CO2)cc1 (stereo in doubt) [ONX-0914] (max concentration tested 10000 nM)", "target-or-system": "DERL-7 (IL-2 2.5 ng/mL)", "test-value": "101%"}
{"molecule": "Cc1cnc(NC(=O)Nc2cc(Br)c(C)cc2OC[C@@H]2CNCCO2)cn1 [Rabusertib] (max concentration tested 1000 nM)", "target-or-system": "DERL-7 (IL-2 2.5 ng/mL)", "test-value": "33.5%"}
{"molecule": "CNC(=O)c1cc(Oc2ccc(NC(=O)Nc3cc(C(C)(C)C)nn3-c3ccc4ncccc4c3)c(F)c2)ccn1 [Rebastinib] (max concentration tested 1000 nM)", "target-or-system": "DERL-7 (IL-2 2.5 ng/mL)", "test-value": "-8.09%"}
{"molecule": "CCc1c2c(nc3ccc(OC(=O)N4CCC(N5CCCCC5)CC4)cc13)-c1cc3c(c(=O)n1C2)COC(=O)[C@]3(O)CC [Irinotecan] (max concentration tested 10000 nM)", "target-or-system": "DERL-7 (IL-2 2.5 ng/mL)", "test-value": "65.6%"}
